- assay.overview: BSK_hDFCGF_Proliferation: Cell Proliferation Assessment in the BioMAP Diversity Plus: hDFCGF Assay (AID 2283059);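 also: curves fitted for both rise and fall of signal versus DMSO baseline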
- condition.label: primary human foreskin fibroblasts
- Protocol: BSK_hDFCGF is a cell-based, multiplexed-readout assay that uses foreskin fibroblast, a human skin primary cell, with measurements taken at 24 hours after chemical dosing in a 96-well plate.BSK_hDFCGF_Proliferation is an assay component measured in the BSK_hDFCGF assay. It measures […] related to cell proliferation using Sulforhodamine staining technology.Data from the assay component BSK_hDFCGF_Proliferation was analyzed into 1 assay endpoint. […]
Activity calls are given as the source filed them. The calls were made as follows: active = hit-call score of the fitted dose curve at least 0.9, where 1 is the maximum; inactive = score below 0.9.
// allowed return values: yes (1) = active, no (0) = inactive

Worked set:
[
  {
    "smiles.string": "Nc1nc(N)nc(NC2CC2)n1",
    "category.label": "no (0)"
  },
  {
    "smiles.string": "O=C(O)c1cc(Oc2ccc(C(F)(F)F)cc2Cl)ccc1[N+](=O)[O-]",
    "category.label": "no (0)"
  },
  {
    "smiles.string": "CCOP(=S)(OCC)SCCSCC",
    "category.label": "no (0)"
  }
]

Input line: In this assay, the call recorded for `CSc1nc(NC(C)C)nc(NC(C)C)n1` was what?
Output line: no (0)

Input line: In this assay, the call recorded for `CCOP(=O)(OCC)Oc1cc(C)nc(C(C)C)n1` was what?
Output line: yes (1)

----------
- Read-out: Interleukin-8 (IL8), CXCL8 (gene 3576)
- assay.overview: BSK_LPS_IL8: BioMAP Diversity Plus: LPS Assay for Interleukin-8 (IL8) Biomarker Activity (AID 2283078)
- condition.label: primary human HUVEC with PBMC; actives raise or lower the signal
Activity calls are given as the source filed them. How the source made its calls: active means hit-call score of the fitted dose curve at least 0.9, where 1 is the maximum; inactive means score below 0.9.
// allowed return values: active, inactive

Worked set:
[
  {
    "smiles.string": "CC[C@H](C)[C@H]1O[C@]2(C=C[C@@H]1C)C[C@@H]1C[C@@H](C/C=C(\\C)[C@@H](O[C@H]3C[C@H](OC)[C@@H](O[C@H]4C[C@H](OC)[C@@H](NC)[C@H](C)O4)[C@H](C)O3)[C@@H](C)/C=C/C=C3\\CO[C@@H]4[C@H](O)C(C)=C[C@@H](C(=O)O1)[C@]34O)O2",
    "category.label": "active"
  },
  {
    "smiles.string": "CCNc1nc(Cl)nc(NC(C)(C)C#N)n1",
    "category.label": "inactive"
  }
]

Input line: In this assay, the call recorded for `CC(=NC#N)N(C)Cc1ccc(Cl)nc1` was what?
Output line: inactive

----------
- Read-out: Cytochrome P450 3A4 (Homo sapiens) (UniProt P08684)
- Sequence (P08684 whole entry, looked up): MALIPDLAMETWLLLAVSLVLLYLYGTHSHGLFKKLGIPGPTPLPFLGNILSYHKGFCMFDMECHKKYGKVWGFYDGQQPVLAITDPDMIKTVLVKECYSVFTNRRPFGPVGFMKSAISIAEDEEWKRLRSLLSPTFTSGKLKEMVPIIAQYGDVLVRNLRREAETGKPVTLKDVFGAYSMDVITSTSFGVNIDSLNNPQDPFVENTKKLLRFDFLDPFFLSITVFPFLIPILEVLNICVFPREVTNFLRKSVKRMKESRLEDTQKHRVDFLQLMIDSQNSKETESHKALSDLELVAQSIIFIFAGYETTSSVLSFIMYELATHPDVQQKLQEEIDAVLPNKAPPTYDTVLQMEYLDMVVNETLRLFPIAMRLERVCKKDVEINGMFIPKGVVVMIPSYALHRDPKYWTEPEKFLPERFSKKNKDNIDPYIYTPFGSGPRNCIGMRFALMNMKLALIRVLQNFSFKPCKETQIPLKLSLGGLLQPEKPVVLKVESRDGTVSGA
- assay.overview: LTEA_HepaRG_CYP3A4: Life Technologies and Expression Analysis (LTEA) Assay for CYP3A4 using HepaRG (AID 2283487)
- condition.label: mRNA level, 48 h; actives raise or lower the signal
Calls of active or inactive are those of the source. How the source made its calls: active means hit-call score of the fitted dose curve at least 0.9, where 1 is the maximum; inactive means score below 0.9.
measure: AC50

[
  {
    "compound": "Nc1nc(N)nc(NC2CC2)n1",
    "result": "inactive"
  },
  {
    "compound": "CCCSP(=O)(OCC)Oc1ccc(Br)cc1Cl (configuration not stated)",
    "result": "inactive"
  },
  {
    "compound": "CCOP(=S)(Oc1cnc(C(C)(C)C)nc1)OC(C)C (configuration not stated)",
    "result": "13.9 µM (active)"
  },
  {
    "compound": "CC(C)=CC1C(C(=O)OCN2C(=O)C3=C(CCCC3)C2=O)C1(C)C (configuration not stated)",
    "result": "inactive"
  },
  {
    "compound": "CC(Oc1cccc(Cl)c1)C(=O)O (configuration not stated)",
    "result": "10 µM (active)"
  }
]

Below: the item to evaluate.
Input line: Would you kindly share the measured AC50 for `CCOP(=S)(OCC)Oc1ccc([N+](=O)[O-])cc1` ?
Output line: 8.92 µM (active)

Recorded values, source PubChem BioAssay (EPA / NIEHS).
